Ref: paper PMC11396129

# Test system: MDA-MB-435
# protocolNotes: NCI 60 panel growth inhibition (SRB), melanoma
# Format: cell-based, human
# conditionInfo: MDA-MB-435, 10 μM
Measured GI% accompanies every entry in the list below.
Kindly provide the numeric value in % only, without the unit symbol.

// worked examples, GI% included
- compound: "O=C(COc1ccccc1-c1nc2ccccc2s1)NN=C1C(=O)Nc2ccc(Br)cc21 [Compound 9f]"
  target: "MDA-MB-435"
  GI%, %: 14.63
- compound: "CNC(=O)c1nn(C)c2c1C(C)(C)Cc1cnc(Nc3ccc(N4CCN(C)CC4)cc3)nc1-2 [Milciclib, reference compound]"
  target: "MDA-MB-435"
  GI%, %: 78.9

Now consider a different compound.
## Input Record lookup: for MDA-MB-435, what GI% belongs to COc1ccc2c(c1)C(=NNC(=O)COc1cc(-c3nc4ccccc4s3)ccc1OC)C(=O)N2 [Compound 9o] ?
## Output 96.57

* * *

# Test system: MDA-MB-435
# protocolNotes: NCI 60 panel growth inhibition (SRB), melanoma
# Type: cell-based, human
# conditionInfo: MDA-MB-435, 10 μM

- molecule: "COc1cccc(-c2nc3ccccc3s2)c1OCC(=O)NN=C1C(=O)Nc2ccc(C)cc21 [Compound 9h]"
  GI%: "– (GI% < 5%)"
- molecule: "COc1ccc2c(c1)C(=NNC(=O)COc1c(OC)cccc1-c1nc3ccccc3s1)C(=O)N2 [Compound 9i]"
  GI%: "– (GI% < 5%)"
- molecule: "O=C(COc1ccccc1-c1nc2ccccc2s1)NN=C1C(=O)Nc2ccc(Cl)cc21 [Compound 9e]"
  GI%: "– (GI% < 5%)"
